Origin of measurements: patent US12065436B2

Target: bovine cardiac myofibrils (full-length cardiac myosin ATPase in the native sarcomere) (Bos taurus (Bovine), UniProt Q9BE39)
Sequence (Q9BE39 whole entry): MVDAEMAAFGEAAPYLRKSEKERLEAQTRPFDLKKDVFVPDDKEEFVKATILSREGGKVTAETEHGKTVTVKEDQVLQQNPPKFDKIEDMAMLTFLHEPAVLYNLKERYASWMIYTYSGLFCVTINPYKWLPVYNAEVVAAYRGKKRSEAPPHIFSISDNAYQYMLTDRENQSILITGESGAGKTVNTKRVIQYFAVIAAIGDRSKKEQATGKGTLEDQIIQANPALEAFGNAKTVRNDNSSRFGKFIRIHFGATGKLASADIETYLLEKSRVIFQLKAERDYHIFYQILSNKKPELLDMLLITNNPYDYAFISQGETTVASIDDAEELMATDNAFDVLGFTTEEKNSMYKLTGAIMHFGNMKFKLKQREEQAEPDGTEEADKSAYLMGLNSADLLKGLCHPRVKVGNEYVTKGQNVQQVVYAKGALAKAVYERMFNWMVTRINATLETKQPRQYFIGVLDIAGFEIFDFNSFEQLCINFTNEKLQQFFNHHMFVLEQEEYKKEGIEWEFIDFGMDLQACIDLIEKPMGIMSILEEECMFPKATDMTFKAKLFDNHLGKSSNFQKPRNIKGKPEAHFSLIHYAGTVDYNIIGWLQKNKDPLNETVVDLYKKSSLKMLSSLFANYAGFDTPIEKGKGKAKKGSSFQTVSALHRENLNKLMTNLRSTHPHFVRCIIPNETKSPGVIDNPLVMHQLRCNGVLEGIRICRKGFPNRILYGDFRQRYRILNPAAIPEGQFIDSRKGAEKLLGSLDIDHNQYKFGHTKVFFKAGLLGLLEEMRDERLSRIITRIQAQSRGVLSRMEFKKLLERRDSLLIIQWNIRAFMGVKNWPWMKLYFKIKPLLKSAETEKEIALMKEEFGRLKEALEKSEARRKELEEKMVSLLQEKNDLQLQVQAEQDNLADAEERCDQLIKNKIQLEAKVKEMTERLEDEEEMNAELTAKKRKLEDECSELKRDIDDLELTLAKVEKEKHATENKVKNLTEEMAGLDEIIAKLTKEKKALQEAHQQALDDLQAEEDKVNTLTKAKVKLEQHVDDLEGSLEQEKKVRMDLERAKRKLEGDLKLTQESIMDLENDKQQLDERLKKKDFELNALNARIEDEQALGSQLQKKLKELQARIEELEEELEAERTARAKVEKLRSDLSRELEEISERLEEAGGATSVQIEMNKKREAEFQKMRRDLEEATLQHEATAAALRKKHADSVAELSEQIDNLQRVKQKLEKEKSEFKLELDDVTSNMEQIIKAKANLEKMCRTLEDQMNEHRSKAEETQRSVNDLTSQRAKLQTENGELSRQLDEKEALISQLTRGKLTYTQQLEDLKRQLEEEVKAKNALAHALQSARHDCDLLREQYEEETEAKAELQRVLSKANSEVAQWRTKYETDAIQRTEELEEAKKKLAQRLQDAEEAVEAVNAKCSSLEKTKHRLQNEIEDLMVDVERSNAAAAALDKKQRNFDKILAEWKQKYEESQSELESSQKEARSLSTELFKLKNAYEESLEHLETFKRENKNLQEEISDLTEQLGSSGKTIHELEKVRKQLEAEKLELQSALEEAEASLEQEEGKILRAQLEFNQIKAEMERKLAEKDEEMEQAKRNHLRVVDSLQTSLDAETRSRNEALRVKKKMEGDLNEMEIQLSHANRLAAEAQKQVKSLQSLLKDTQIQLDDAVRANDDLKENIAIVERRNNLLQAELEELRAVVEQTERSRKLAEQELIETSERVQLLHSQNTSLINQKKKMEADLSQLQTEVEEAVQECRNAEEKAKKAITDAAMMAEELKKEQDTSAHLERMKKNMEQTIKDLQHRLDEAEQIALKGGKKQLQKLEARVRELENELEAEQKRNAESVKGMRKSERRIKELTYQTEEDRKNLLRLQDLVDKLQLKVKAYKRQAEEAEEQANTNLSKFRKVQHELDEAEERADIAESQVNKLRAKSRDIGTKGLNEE
Sequence (P85100 whole entry partner): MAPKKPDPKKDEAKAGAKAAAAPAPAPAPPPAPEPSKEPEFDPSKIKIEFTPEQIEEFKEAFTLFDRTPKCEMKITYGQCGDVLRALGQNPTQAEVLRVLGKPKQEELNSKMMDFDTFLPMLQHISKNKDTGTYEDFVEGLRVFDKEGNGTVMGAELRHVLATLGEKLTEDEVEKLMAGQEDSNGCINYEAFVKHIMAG
Sequence (Q3SZE5 whole entry partner): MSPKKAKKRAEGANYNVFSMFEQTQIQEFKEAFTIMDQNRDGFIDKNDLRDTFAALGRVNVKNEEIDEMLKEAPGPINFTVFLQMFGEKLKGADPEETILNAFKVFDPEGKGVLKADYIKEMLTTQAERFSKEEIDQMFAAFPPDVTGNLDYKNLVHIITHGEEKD
Assay: Skinned bovine cardiac myofibril ATPase assay (PK/LDH-coupled)
Type: biochemical
Conditions: Ca2+ activating to 75% of maximal rate, concentration giving 15% inhibition
Protocol: To evaluate the effect of compounds on the ATPase activity of full-length cardiac myosin in the context of the native sarcomere, skinned myofibril assays were performed. […] Small molecule agents were assessed for their ability to inhibit the steady-state ATPase activity of bovine cardiac myofibrils using pyruvate kinase and lactate dehydrogenase (PK/LDH)-coupled enzyme system. This assay regenerates myosin-produced ADP into ATP by oxidizing NADH, producing an absorbance change at 340 nm. […]
parameter-measured: CDMF75 IC15 (µM)

compound: COCc1nc(-c2ccc3c(c2)CC[C@H]3NC(=O)c2ccnc(CO)c2)no1
unit-descriptor: µM
CDMF75 IC15: 1.2
--
compound: COCC(=O)N[C@@H]1CCc2cc(-c3noc(C(F)F)n3)ccc21
unit-descriptor: µM
CDMF75 IC15: 9.3
--
compound: Cn1nnc(C(=O)NC2COc3cc(-c4noc(C(F)F)n4)ccc32)n1 (stereo not drawn)
unit-descriptor: µM
CDMF75 IC15: 3.2

(I) CCc1nc(-c2ccc3c(c2)CC[C@H]3NC(=O)c2cn(CCO)nc2C)no1
(II) CCc1nc(-c2ccc3c(c2)CC[C@H]3NC(=O)c2coc(COC)n2)no1
Field: entry with larger CDMF75 IC15 (options I / II ). Please indicate the selected item by its label.
II
(II: 2.1 µM, I: 0.5 µM)

(1) CCc1nc(-c2ccc3c(c2)CC[C@H]3NC(=O)c2cnn(CCOC)c2C)no1 [Compound 575]
(2) Cc1noc(C(=O)NC2CCc3cc(-c4noc(C)n4)ccc32)n1 (stereo not drawn)
(3) Cc1c(C(=O)N[C@@H]2COc3cc(-c4noc(C(F)F)n4)ccc32)cnn1C
(4) Cc1cc(C(=O)NC2COc3cc(-c4noc(C(F)F)n4)cnc32)ccn1 (stereo not drawn)
Arrange by CDMF75 IC15, high to low. Put the labels in the order asked and list them.
4, 2, 1, 3
(4: 10.1 µM, 2: 2.6 µM, 1: 1.1 µM, 3: 0.5 µM)
